experiment: yeast display, Sf9 membrane polyspecificity reagent, FACS + sequencing; frameworks hold sequencing errors
attribute measured: polyreactivity (PSR sort gate)

# count of solved cases: 4
sequence chain	polyreactivity (PSR sort gate)
QVQLVESGGGLVQAGGSLRLSCAASGRTFVYNAMGWYRQAPGKERELVAAISFGGGNTYYADSVKGRFTISRDNAKNTVYLQMNSLKPEDTAVYYCAKAYIGYWGASWYYAYDYWGQGTQVTVSS	low polyreactivity
QVQLVESGGGLVQAGGSLRLSCAASGRIFFYYAMGWYRQAPGKERELVAAISQSGGSSYYADSVKGRFTISRDNAKNTVYLQLTSLKPEDTAVYYCAADDRYYTYGYDYWGQGTQVTVSS	low polyreactivity
QVQLVESGGGLVQAGGSLRLSCAASGRISVVNAMGWYRQAPGKERELVATINRGGSTYADSVKGRFTISRDNAKNTVYLQMNSLKPEDTAVYYCAARTFRISRMDYWGQGTQVTVSS	high polyreactivity
QVQLVESGVGIVQAGGSLRLSSAPSGRTFTWYAMGRTRQAPGKERELVAAITNGGRTYADSVKGRFTISRDNAKNTVYLQMNSLKPEDTAVYYCAKVQYRGYLPHQRGRERDYDYWGQGTQVTVSS	low polyreactivity

Continue with the next sequence.
stdin: // query polyreactivity (PSR sort gate) value for entry QVQLVESGGGLVQAGGSLSLSCAASGSTFSVYAMGWYRQAPGKERELVAAITRSGGSTYYADSVKGRFTISRDNAKNTVYLQMNSLIAEDSAVYYCNAEWYYVWFITTYWLDQYGYWGQGTQVTVSS
stdout: low polyreactivity

---

test: yeast display, Sf9 membrane polyspecificity reagent, FACS + sequencing; frameworks hold sequencing errors
attribute measured: polyreactivity (PSR sort gate)

# count of solved cases: 8
sequence chain	measured result
QVQLVESGGGLVQAGGSLRLSCAASGFIFDYYTMGWYRQAPGKERELVASIRSSGSSTYYADSVKGRFTISRDNAKNTVYLQMNSLKPEDTAVYYCARRYVVNRDWGDDYWGQGTQVTVSS	high polyreactivity
QVQLVESGGGLVQAGGSLRLSCAASGSTFKYYAMGWSRQAPGKERELVAAISYRGGRTYYADSVKGRFTISRDNAKNTVYLQMNSLKPEDTAVYYCPAVKPYYIQYQGSAGYDYWGQGTQVTVSS	high polyreactivity
QEQLQESGGGLVLAGGSLRLSCSASGNISVYGSMGWYRQAPGKELEFVATIDPGTNTNYADSVKDRFTISRDNAKNTVYLQMNSLKPEDRAVYYCAVEAGSDWPFRYWGQGTQVTVSS	low polyreactivity
QVQLVDSAGGLVQAGGSLRLSCAASGSIFFRYAMGGYRQAAGKERELVAAITQRTGSTYYADSVKGRFTISRDNAKITVYLQMNSLKPEDTAVYYCAAKRWRRSFTGNYWGQGTQVTVSS	high polyreactivity
QVQLVESGGGLVQAGGSGRLSCAASGRTTRDYAMGWYRQAPGKERELVAAIRWRGVSTYYADSVKGRFTISRDNAKNTVDVQMNSLKPEDTAVYYCAKRESVSTSAGKGAMDSWGQGTQVTVSS	high polyreactivity
QVQLVESGGGLVQAGGSLRLSCAASGSIFSYYAMGWYRQAPGKERELVAAITWSGTRTYYADSVKGRFTISRDNAKNTVYLQMNSLKPEDTAVSYCAADSSIRDAYWGQGTQVTVSS	low polyreactivity
QVQLVESGGGLVQARGSLRLSCAASRLIFTWYAMRWSRHAPGKERELVAAISWSDDSTNYADSVKGRFTISRDNAKNTVYLLMNSLKPEDTAVYYCATQLDYGGRVGDADDYWGQGTQVTVSS	low polyreactivity
QVQLVESGGGLVQAGGSLRLSCAASGSTFLGYDMGWYRHAPGKERELVATISKSGGSTHYADSVKGRFTISRDNAKNTVYLQMNSLKPEDTAVYYCAADYYQRYYKKSGEYDYWGQGTQVTVSS	low polyreactivity

stdin: // query polyreactivity (PSR sort gate) value for entry QVQLVESGGGLVQAGGSLRLSCAASGFTCGYYAMGWYREAPGKEREFVATISYGTGSTYYADSVKGRFTISRDNAKNTVSFQMNSLKPEDTAVYYCNADTWPGEYNGYFSGAYDYWGQGTQVTVSS
stdout: high polyreactivity

stdin: // query polyreactivity (PSR sort gate) value for entry QVQLVESGGGLVQAGGSLRLSCAASGSTFVRNAMGWYRQAPGKERELVAAIRWRSGSTYYADSVKGRFTISRDNAKNTVYLQMNSLKPEDTAVYYCAVDYNSFRYGPLGYWGQGTQVTVSS
stdout: high polyreactivity

stdin: // query polyreactivity (PSR sort gate) value for entry QVQLVESGGGLVQEGGSLRLSCAASGSTFKYYAMGWYRQAPGKERELVAAISKGATRTYYADSVKGRFTISRDNAKNTVYLQMNSLKPEDTAVYYCAARGRWNVPARRDYWGQGTQVTVSS
stdout: high polyreactivity

---

test: yeast display, Sf9 membrane polyspecificity reagent, FACS + sequencing; frameworks hold sequencing errors

sequence chain	polyreactivity (PSR sort gate)
QVQLVESGGGLVQAGGSLRLSCAASGSIFGGYAMGWYRQAPGKERELVAAITWNGGSTYYADSVKGRFTISRDNAKNTVYLQMNSLKPEDTAVYYCAAELPGRDAGRYDYWGQGTQVTVSS	low polyreactivity
QVQLVESGGGLVQAGGSLRLSCAASGSTFGYYAMGWYRQAHGKERELVAAITSGGSTNYADSVKGRFTISRDNAKNTVYLQMNSLKPEDTAVYYCAAADSYRYHLRRYNYWGQGTQVTVSS	low polyreactivity
QVQLEESGGGLVQAGGSLRLSCAASGITFEYYAMVWYRQAPGKERELVAANDTGGSTNYADSVKGRFTISRDNAKNTVYFLMNSLKPEDTEVYYCAADWSWWDGEDYHFEYDYWGQGTQVTVSS	low polyreactivity

---

assay: yeast display, Sf9 membrane polyspecificity reagent, FACS + sequencing; frameworks hold sequencing errors

sequence chain	polyreactivity (PSR sort gate)
QVQLVESAGGLVQAGGSLRLSCAASGRIFVYYAMGGYRKAPGKERELVAAISDSDDSSYYADSVKGRFTISRDNAKNTVYLQMNSLKPEDTAVYYCAAEGDIGGDDYYWGQGTQLTVSS	high polyreactivity
QVQLVESGGGLVQAGGSLRLSCAASGRILASYAMGWYRQAPGKERELVAAISRSGGSTYYADSVKGRFTISRDNAKNTVYLQMNSLKPEDTAVYYCAAKYPQKTPVNSYGNSFYYWGQGTQVTVSS	high polyreactivity

---

assay: yeast display, Sf9 membrane polyspecificity reagent, FACS + sequencing; frameworks hold sequencing errors
attribute measured: polyreactivity (PSR sort gate)

# count of solved cases: 5
sequence chain	measured result
QVQLVESGGCLVQAGGSLRLSCAASGSIFRRNAMGWSRQAPGKERELVAAISRTGGSTYYADSVKGRFTISRDNAKNTVYLQLNSLKPEDTAVYYCNTYSDYADDDYWGQGTQVTVSS	high polyreactivity
QVQLVESGGGLVQAGGSLRLSCAASGGIFNYYAMGWYRPAPGKVRELVAAISASGGSTYYADSVKGRFTISRDNAKNTVYLQMNSLIQEDTAVYYCAAGLPYGYGYDYWGQGTQVTVSS	low polyreactivity
QVQLVESGGGLVQAGGSLRLRCAASGFTIGYNVMGLYRQAPGKERELVATISWNGARTYYADSVKGRFTISRDNAKNTVYLQMNSLKPEDTAVYYCAARRYYRGEYDYWGQGTQVTVSS	low polyreactivity
QVQIVESGGALVQAGGSLRLSCAASGITLRPYAMGWYRQAPGKERELVAAITSSGGSTYYADSVKGRFTISRDIAKNTVYLLMNSLIPEDTAVYYCAALRVYAGDYWGQGTQVTVSS	low polyreactivity
QVQHVESGGGLVQAGGSNRLSCAASAFIFRSNAMGWYRQAAGKEREFVPAISSRGGSTTYADSVKGRFTISRDNAKITVYLQMKSLKPEDTAVYYCARDCYYYPQYRKRYYYWGQGTQVSVSS	high polyreactivity

stdin: // query polyreactivity (PSR sort gate) value for entry QVQLQESGGGLVQAGGCLRLSCAASGTSFDPDYMGWYHQAPGKERELVASISLGRITYNADSVKGRFTINRDNAKNTVYLQMNSLKPEDTAVYYCAVRVETIYYYSYWGQGTQVTVSS
stdout: high polyreactivity

stdin: // query polyreactivity (PSR sort gate) value for entry QVQLVESGGGLVQAGGSLRLSCAASGSTLYGNVMGWYRQAPGKERELVATINRGGSTNYADSVKGRFTISRDNAKNTVYLQMNSLKPEDTAVYYCAARGFAWYYLEDYWGQGTQVTVSS
stdout: low polyreactivity

stdin: // query polyreactivity (PSR sort gate) value for entry QVQLVESGGGLVQAGGSLRLSCAASGSTFGPYAMGWYRQAPGKERELVAAISSRGARTYYADSVKGRFTISRDNAKNTVYLQMNSLKPEDTAVYYCANTYHGTAYDYWGQGTQVTVSS
stdout: high polyreactivity

stdin: // query polyreactivity (PSR sort gate) value for entry QVQLVESGGGLVQAGGSLRVSCAASGFTFRGYAMGWYRQAPGKERELVAAIRRGVITNYADSVKGRFTISRDNAKNTVYLQMHSLKPEDTAVYYCAAGNITPYRYYHGYYQSIYDYWGQGTQVTVSS
stdout: low polyreactivity

stdin: // query polyreactivity (PSR sort gate) value for entry QVQLVESGGGLVQAGGSLRLSCAASGFTYFGYAMGWYRQAPGKERELVAAISTIDGDTYYADSVKGRFTISRDNAKNTVYLQMNSLKPEDTAVYYCAADDYIDGDDYWGQGTQVTVSS
stdout: low polyreactivity

stdin: // query polyreactivity (PSR sort gate) value for entry QVQLVESGGRLVQAGGSLRLSCAASGRIFGYYAMGRYRQAPGKERQLVAAITSGGSTYYADSVKGRFTISRDNATNTVYLQMHSLKPEDTADYYCNARYWGRTKVYYWGQGTQVTVSS
stdout: high polyreactivity
